Biological target: T1, TNFR1 (Homo sapiens, UniProt P19438)
T1 chain: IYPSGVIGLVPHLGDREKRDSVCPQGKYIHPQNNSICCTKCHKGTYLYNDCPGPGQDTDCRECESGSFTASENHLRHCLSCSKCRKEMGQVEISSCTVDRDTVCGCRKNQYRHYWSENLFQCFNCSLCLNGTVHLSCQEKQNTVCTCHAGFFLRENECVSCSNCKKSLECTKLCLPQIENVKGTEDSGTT
Experiment: yeast display SC50
quantity_name: apparent Kd (screen) (nM)
Give the quantity in nM, number only.

A47P (designed binder) SMEEEVEKAAKEYEKKKKEAIEKHLEKLKAKDKEAAERFLKELEEAPKEYAKDEAKTMSEEEAKRRAKKYKEKVLLSELSEEEQKEIKEAEEKLVRTILKYVEEAAK    10.4
K64W (designed binder) SMEEEVEKAAKEYEKKKKEAIEKHLEKLKAKDKEAAERFLKELEEAAKEYAKDEAKTMSEEEAWRRAKKYKEKVLLSELSEEEQKEIKEAEEKLVRTILKYVEEAAK    0.446
K107D (designed binder) SMEEEVEKAAKEYEKKKKEAIEKHLEKLKAKDKEAAERFLKELEEAAKEYAKDEAKTMSEEEAKRRAKKYKEKVLLSELSEEEQKEIKEAEEKLVRTILKYVEEAAD    0.0498

As a next step, examine the binder that follows.
# apparent Kd (screen) (binder: E89T (designed binder) SMEEEVEKAAKEYEKKKKEAIEKHLEKLKAKDKEAAERFLKELEEAAKEYAKDEAKTMSEEEAKRRAKKYKEKVLLSELSEEEQKEIKTAEEKLVRTILKYVEEAAK ) is 2.25
